system: CCRIS mutagenicity, Ames/micronucleus/aberration tests; assay: CCRIS mutagenicity studies; settings: Test System: AMES SALMONELLA TYPHIMURIUM; Strain/Indicator: TA98; Metabolic Activation: RAT, LIVER, S-9, AROCLOR 1254 (30%); Method: PREINCUBATION
Activity calls are given as the source filed them. No rule for the calls is given here.
Possible outcomes: active, inactive

Compound | Class
Cc1cc(-c2cc(C)c(N)c(C)c2)cc(C)c1N | inactive
Nc1ccccc1C(=O)OC1CCCCC1 | inactive
c1ccc(COCc2ccccc2)cc1 | inactive
CCCCNC(=O)n1c(NC(=O)OC)nc2ccccc21 | inactive
COP(=O)(OC)OC | inactive
Oc1c(Cl)c(Cl)cc(Cl)c1Cl | inactive
FC(F)(F)c1ccccc1Cl | inactive
Nc1ccc(Br)cc1 | inactive
FCC1CO1 (stereo not given) | inactive
ClC(Cl)(Cl)c1ccccc1 | active
O=C(Cl)C(Cl)Cl | inactive
O=Cc1ccccc1Cl | inactive
[CH3][Hg+] | inactive
CCOc1cccc(N)c1 | inactive
C=C(C)c1ccccc1 | inactive
CCCCCCCCCCCC[S][Sn]([CH2]CCC)([CH2]CCC)[S]CCCCCCCCCCCC | inactive
CN1CCC(CN2c3ccccc3Sc3ccccc32)C1 (stereo not given) | inactive
COP(=O)(OC)OC=C(Cl)Cl | inactive
Nc1ccccc1C(=O)OC/C=C/c1ccccc1 | inactive
CCCCOc1ccc(C=Nc2ccc(CC)cc2)cc1 | inactive
C[C@H](CCC(=O)O)[C@H]1CC[C@H]2[C@@H]3CC[C@@H]4C[C@H](O)CC[C@]4(C)[C@H]3CC[C@]12C | inactive
CCN(CC)c1ccc(N=O)c(O)c1 | inactive
Clc1cccc(C(Cl)(Cl)Cl)n1 | active
O=[N+]([O-])c1cccc2c([N+](=O)[O-])cccc12 | active
CCCCC(CC)COCCCN (stereo not given) | inactive
C[C@](N)(Cc1ccc(O)c(O)c1)C(=O)O | inactive
Nc1ccc(F)cc1F | inactive
c1ccc2[nH]c(-c3cscn3)nc2c1 | inactive
CC(C)(C)c1cc(O)ccc1O | inactive
O=C(O)c1ccccc1 | inactive

* * *

test system: CCRIS mutagenicity, Ames/micronucleus/aberration tests; experiment: CCRIS mutagenicity studies; details: Test System: AMES SALMONELLA TYPHIMURIUM; Strain/Indicator: TA1535; Metabolic Activation: HAMSTER, LIVER, S-9, AROCLOR 1254 (10%); Method: STANDARD PLATE
The source made the active and inactive calls. No rule for the calls is given here.
Outcome codes: active, inactive

Chemical string | Class
O=C1C=CC(=O)N1c1ccc(Cc2ccc(N3C(=O)C=CC3=O)cc2)cc1 | inactive
CCCCCCCCCCCC(=O)OOC(=O)CCCCCCCCCCC | inactive
Nc1ccn([C@@H]2C=C(CO)[C@@H](O)[C@H]2O)c(=O)n1 | inactive
C=CC#N | active

* * *

system: CCRIS mutagenicity, Ames/micronucleus/aberration tests; experiment: CCRIS mutagenicity studies; settings: Test System: AMES SALMONELLA TYPHIMURIUM; Strain/Indicator: TA100; Metabolic Activation: NONE; Method: PREINCUBATION
Activity calls are given as the source filed them. The rule behind the calls is not given here.
Property label: mutagenic call

Compound | Value
CC(=O)Nc1ccc(N=Nc2cc(C)ccc2O)cc1 | active; positive
O=Nc1cc2c3ccccc3ccc2c2ccccc12 | active; positive
OC1C2(Cl)C3(Cl)C4(Cl)C(Cl)(Cl)C5(Cl)C3(Cl)C1(Cl)C5(Cl)C24Cl (centres undefined) | inactive; negative
CC(C)O | inactive; negative
Nc1nc(-c2ccc([N+](=O)[O-])cc2)nc2c1ncn2-c1ccc([N+](=O)[O-])cc1 | active; positive
Cc1c(N=C=O)cccc1N=C=O | inactive; negative
OC1c2ccccc2Oc2ccccc21 | inactive; negative
CN1CCC(CN2c3ccccc3Sc3ccccc32)C1 (centres undefined) | inactive; negative
[O]=[W](=[O])([OH])[OH] | inactive; negative
CCCCOB(OCCCC)OCCCC | inactive; negative
Nc1ccc([N+](=O)[O-])cc1N | active; positive
COC(=O)c1ccc(/C=N/n2nnc3c([nH]c4ccccc43)c2=O)cc1 | inactive; negative
C=C(C)CCl | inactive; negative
C=CC1CC2C=CC1C2 (centres undefined) | inactive; negative
N#CCCO | inactive; negative
CCCCCCCCCCCOC(=O)c1ccccc1C(=O)OCCCCCCCCCCC | inactive; negative
Cc1cccc(N)c1 | inactive; negative
Cn1c(N)nc2c3cccnc3ccc21 | inactive; negative
O=C/C=C/c1ccc([N+](=O)[O-])cc1 | active; positive
COc1ccc(C(=O)N2CCN(c3ccc4c(c3)CCC(=O)N4)CC2)cc1OC | inactive; negative
c1ccc(N2CCNCC2)cc1 | inactive; negative
CCCCN(C[C@@H](CO)Cc1ccccc1)N=O | inactive; negative
COC(C)=O | inactive; negative
O=C1[O][Bi][O]c2ccccc21 | inactive; negative
C[C@](N)(Cc1ccc(O)c(O)c1)C(=O)O | inactive; negative
CC(=O)Oc1cc([N+](=O)[O-])c2ccc3cccc4ccc1c2c43 | active; positive
CCCCOCCOC(=O)COc1ccc(Cl)cc1Cl | inactive; negative
COC(=O)c1cc(Cc2ccc(N)c(C(=O)OC)c2)ccc1N | inactive; negative
NS(=O)(=O)c1cc2c(cc1Cl)NCNS2(=O)=O | inactive; negative
